B1: RTP4 (parent)
chain: TYWEHWTSQGQVRMRLFGQRCQKC

Variants of: B1
Test: protein stability index of a GFP-peptide fusion (GPS, HEK-293T) (PSI 1-6); higher = more stable;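 further: lentivirally expressed fusions sorted by FACS into six bins by GFP to DsRed ratio, PSI derived from sequencing read proportions per bin multiplied by bin number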
Details: c terminus: a fixed tail appended
Binary classification by protein stability index, with 2 as an inclusive lower bound for met; all other cases are not met.

Check the entry M14H : does protein stability index equal or exceed 2? met

Check the entry L16Q : does protein stability index equal or exceed 2? not met

Check the entry Y2I : does protein stability index equal or exceed 2? not met

Check the entry G10P : does protein stability index equal or exceed 2? not met

Check the entry E4P : does protein stability index equal or exceed 2? not met
